molecular target: Fibrinogen beta chain (Homo sapiens) (UniProt P02675); experiment: displacement of Tn6 from fibrin D-dimer/E complex – biochemical, fluorescence polarization, Ki, set 1, late-stage follow-up (AID 1053202); conditions: Purified DD(E), TRITC-Tn6 peptide displacement, protein 2 µM, probe 0.1 µM
Sequence (P02675 whole entry, looked up): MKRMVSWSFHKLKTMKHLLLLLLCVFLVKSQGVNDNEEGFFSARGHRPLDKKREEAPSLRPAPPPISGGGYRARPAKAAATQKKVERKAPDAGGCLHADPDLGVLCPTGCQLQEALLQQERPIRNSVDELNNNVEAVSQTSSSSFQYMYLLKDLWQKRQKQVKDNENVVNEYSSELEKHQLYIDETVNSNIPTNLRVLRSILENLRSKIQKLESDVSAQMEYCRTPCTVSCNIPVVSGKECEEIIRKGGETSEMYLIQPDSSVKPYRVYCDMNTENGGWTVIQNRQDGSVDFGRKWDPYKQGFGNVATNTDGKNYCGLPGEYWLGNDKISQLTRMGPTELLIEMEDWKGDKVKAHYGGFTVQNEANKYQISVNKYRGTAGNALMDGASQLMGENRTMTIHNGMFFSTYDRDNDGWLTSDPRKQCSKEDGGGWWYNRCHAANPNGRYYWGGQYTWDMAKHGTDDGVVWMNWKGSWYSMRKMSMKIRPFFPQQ
Activity calls are given as the source filed them.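 Rule for the calls: active = Ki at or below 10 µM; inactive = Ki above 10 µM.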
// allowed return values: active, inactive

**Q:** What classification did CCn1c(CSc2nnnn2C(C)C)nc2cc(C(=O)O)ccc21 end up with in this test?
**A:** inactive

**Q:** What is the recorded call for this compound in the test? CCn1c(CSc2ncnc3sc(C)c(C)c23)nc2cc(C(=O)O)ccc21
**A:** inactive

**Q:** Hi, sorry to bother you, what did the test record for Nn1cc(-c2ccccc2)nc1SCc1nc2ccc(Cl)cc2n1CCO ?
**A:** inactive

**Q:** Tell me the recorded outcome of this test for CCn1c(CSc2nnnn2-c2ccccc2)nc2cc(C(=O)O)ccc21 .
**A:** inactive

**Q:** Could you please tell me the result logged for CCn1c(CSc2nccn2C)nc2cc(S(=O)(=O)N3CCCCC3)ccc21 in this assay?
**A:** active

**Q:** Which result was noted for this compound in the test: CCCCn1c(CSc2nnc(-c3ccccc3F)n2C)nc2cc(S(N)(=O)=O)ccc21
**A:** inactive

----------
biological target: Fibrinogen beta chain (Homo sapiens) (UniProt P02675); experiment: displacement of Tn6 from fibrin D-dimer/E complex – biochemical, fluorescence polarization, Ki, set 1, late-stage follow-up (AID 1053202); conditions: Purified DD(E), TRITC-Tn6 peptide displacement, protein 2 µM, probe 0.1 µM
Activity calls are given as the source filed them.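 Rule for the calls: active = Ki at or below 10 µM; inactive = Ki above 10 µM.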
Lab note: assign the record to one of active, inactive

{"columns": ["smi", "labelValue"],
 "data": [
  ["CCn1c(CSc2nc(C3CC3)n(-c3ccccc3)n2)nc2cc(S(=O)(=O)N(C)C)ccc21", "active"]
]}

**Q:** Please share the test call associated with CCn1c(CSc2nc3sc4c(c3c(=O)n2CCOC)CCCC4)nc2cc(C(=O)O)ccc21 .
**A:** inactive

**Q:** Would you mind telling me which call this test gave COc1ccc2nc(SCc3nc4ccc(Cl)cc4n3CCO)[nH]c2c1 ?
**A:** inactive

**Q:** How did this test come out for CCCCn1c(CSc2nnc(-c3ccccc3F)n2N)nc2cc(S(N)(=O)=O)ccc21 ?
**A:** inactive

**Q:** Which outcome was entered for the compound CCn1c(CSc2nnc(N)s2)nc2cc(F)ccc21 in this test?
**A:** active

----------
biological target: Fibrinogen beta chain (Homo sapiens) (UniProt P02675); assay: displacement of Tn6 from fibrin D-dimer/E complex – biochemical, fluorescence polarization, Ki, set 1, late-stage follow-up (AID 1053202); details: Purified DD(E), TRITC-Tn6 peptide displacement, protein 1 µM, probe 0.05 µM;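 active = Ki at or below 10 µM; inactive = Ki above 10 µM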
Use one of these outcomes when replying: Y (active), N (inactive)

**Q:** Short answer needed: outcome of this test for CCn1c(CSc2nnc(-c3ccncc3)n2C)nc2cc(C(=O)O)ccc21 ?
**A:** Y

**Q:** Which outcome did this test record for the compound CCn1c(CSc2nnc(-c3ccncc3)n2CCOC)nc2cc(C(=O)O)ccc21 ?
**A:** Y

**Q:** What call does the record list for CCn1c(CSc2nnc3ccccn23)nc2cc(C(=O)O)ccc21 ?
**A:** Y

----------
molecular target: Fibrinogen beta chain (Homo sapiens); assay: displacement of Tn6 from fibrin D-dimer/E complex – biochemical, fluorescence polarization, Ki, set 1, late-stage follow-up (AID 1053202); conditions: Purified DD(E), TRITC-Tn6 peptide displacement, protein 2 µM, probe 0.1 µM
Activity calls are given as the source filed them.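 The calls were made as follows: active = Ki at or below 10 µM; inactive = Ki above 10 µM.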
Select the matching outcome among active, inactive

Solved cases (3 shown):
{"columns": ["smi", "labelValue"],
 "data": [
  ["CCn1c(CSc2nnc(Nc3ccccc3F)s2)nc2cc(C(=O)O)ccc21", "active"],
  ["CCCn1c(SCc2nc3cc(S(=O)(=O)N4CCOCC4)ccc3n2CCC)n[nH]c1=O", "active"],
  ["CCCCn1c(CSc2n[nH]c(=O)n2CCC)nc2cc(S(N)(=O)=O)ccc21", "inactive"]
]}

**Q:** Hi, sorry to bother you, what did the test record for CCn1c(CSc2nc3ccccc3s2)nc2cc(C(=O)O)ccc21 ?
**A:** active

----------
biological target: Fibrinogen beta chain (Homo sapiens) (UniProt P02675); experiment: displacement of Tn6 from fibrin D-dimer/E complex – biochemical, fluorescence polarization, Ki, set 1, late-stage follow-up (AID 1053202); details: Purified DD(E), TRITC-Tn6 peptide displacement, protein 2 µM, probe 0.1 µM
Active and inactive are the calls of the source.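 Rule for the calls: active = Ki at or below 10 µM; inactive = Ki above 10 µM.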
Parameter call: string, one of active, inactive

{"columns": ["smi", "testTarget", "labelValue"],
 "data": [
  ["CCn1c(CSc2ccc(NC(C)=O)cc2)nc2cc(C(=O)O)ccc21", "Fibrinogen beta chain (Homo sapiens) (UniProt P02675)", "inactive"],
  ["CCn1c(CSc2nnc(COc3ccc(OC)cc3)n2-c2ccccc2F)nc2cc(C(=O)O)ccc21", "Fibrinogen beta chain (Homo sapiens) (UniProt P02675)", "active"],
  ["Nc1nnc(SCc2nc3ccccc3[nH]2)s1", "Fibrinogen beta chain (Homo sapiens) (UniProt P02675)", "inactive"],
  ["CCn1c(CSc2n[nH]c(N)n2)nc2cc(F)ccc21", "Fibrinogen beta chain (Homo sapiens) (UniProt P02675)", "inactive"],
  ["CCn1c(CSc2nc3ccccc3c(=O)n2-c2ccccc2F)nc2cc(C(=O)O)ccc21", "Fibrinogen beta chain (Homo sapiens) (UniProt P02675)", "inactive"]
]}

**Q:** I'd appreciate the recorded outcome for CCn1c(CSc2nncn2C)nc2cc(C(=O)O)ccc21 from this test.
**A:** active

**Q:** What classification did C=CCn1c(SCc2nc3ccc(Cl)cc3n2CCO)nnc1-c1ccc(Cl)cc1 end up with in this test?
**A:** inactive

**Q:** What outcome does the record of this test show for CCn1c(CSc2nnc(-c3ccoc3C)o2)nc2cc(S(=O)(=O)N(C)C)ccc21 ?
**A:** inactive

**Q:** Query: recorded result category for CCn1c(CSc2n[nH]c(-c3ccccc3)n2)nc2cc(S(=O)(=O)N3CCCCC3)ccc21 in this test
**A:** inactive

**Q:** Short answer needed: outcome of this test for C=CCNc1nnc(SCc2nc3cc(S(=O)(=O)N(C)C)ccc3n2CCC)s1 ?
**A:** inactive

----------
molecular target: Fibrinogen beta chain (Homo sapiens); experiment: displacement of Tn6 from fibrin D-dimer/E complex – biochemical, fluorescence polarization, Ki, set 1, late-stage follow-up (AID 1053202); details: Purified DD(E), TRITC-Tn6 peptide displacement, protein 2 µM, probe 0.1 µM
Activity calls are given as the source filed them.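 How the source made its calls: active means Ki at or below 10 µM; inactive means Ki above 10 µM.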
Choose one outcome from this list and give only that: 1 = active, -1 = inactive

See these solved cases before continuing.
{"columns": ["smi", "testTarget", "labelValue"],
 "data": [
  ["CCCCn1c(CSc2nnc(-c3ccco3)n2C)nc2cc(S(N)(=O)=O)ccc21", "Fibrinogen beta chain (Homo sapiens)", -1],
  ["CCCCn1c(CSc2nc3ccccc3[nH]2)nc2cc(S(N)(=O)=O)ccc21", "Fibrinogen beta chain (Homo sapiens)", -1],
  ["CCCn1c(SCc2nc3cc(C(=O)O)ccc3n2CC)nc2ccccc2c1=O", "Fibrinogen beta chain (Homo sapiens)", 1]
]}

Alright, here's another compound for you.
**Q:** I'd appreciate the recorded outcome for OCCn1c(CSc2nc3ccccc3o2)nc2ccc(Cl)cc21 from this test.
**A:** -1

----------
target: Fibrinogen beta chain (Homo sapiens); assay: displacement of Tn6 from fibrin D-dimer/E complex – biochemical, fluorescence polarization, Ki, set 1, late-stage follow-up (AID 1053202); conditions: Purified DD(E), TRITC-Tn6 peptide displacement, protein 1 µM, probe 0.05 µM
Active and inactive are the calls of the source.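 The calls were made as follows: active = Ki at or below 10 µM; inactive = Ki above 10 µM.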
measurementType: Ki

Worked examples follow.
{"columns": ["smi", "testTarget", "assayValue"],
 "data": [
  ["OCCn1c(CSc2nnc(-c3ccc4c(c3)OCO4)o2)nc2ccc(Cl)cc21", "Fibrinogen beta chain (Homo sapiens)", "inactive"],
  ["CCn1c(CSc2nc3ccccc3[nH]2)nc2cc(C(=O)O)ccc21", "Fibrinogen beta chain (Homo sapiens)", "inactive"],
  ["CCn1c(CSc2nccn2C)nc2cc(C(=O)O)ccc21", "Fibrinogen beta chain (Homo sapiens)", "inactive"],
  ["CCn1c(CSc2n[nH]c(N)n2)nc2cc(C(=O)O)ccc21", "Fibrinogen beta chain (Homo sapiens)", "5.11 µM"]
]}

Could you now look at the following compound, please?
**Q:** Report Ki under test system Fibrinogen beta chain (Homo sapiens) for CCn1c(CSc2ncn[nH]2)nc2cc(C(=O)O)ccc21 .
**A:** inactive
